# hAMYIR cAMP EC50 per entry
biological target: human amylin receptor 1 (hAMY1R): human calcitonin receptor co-expressed with human RAMP1 in UMUC3 cells (human, UniProt P30988 25-474; O60894 27-148); experiment: cell-based or functional assay
Sequence (P30988 25-474, chain 1 of 2): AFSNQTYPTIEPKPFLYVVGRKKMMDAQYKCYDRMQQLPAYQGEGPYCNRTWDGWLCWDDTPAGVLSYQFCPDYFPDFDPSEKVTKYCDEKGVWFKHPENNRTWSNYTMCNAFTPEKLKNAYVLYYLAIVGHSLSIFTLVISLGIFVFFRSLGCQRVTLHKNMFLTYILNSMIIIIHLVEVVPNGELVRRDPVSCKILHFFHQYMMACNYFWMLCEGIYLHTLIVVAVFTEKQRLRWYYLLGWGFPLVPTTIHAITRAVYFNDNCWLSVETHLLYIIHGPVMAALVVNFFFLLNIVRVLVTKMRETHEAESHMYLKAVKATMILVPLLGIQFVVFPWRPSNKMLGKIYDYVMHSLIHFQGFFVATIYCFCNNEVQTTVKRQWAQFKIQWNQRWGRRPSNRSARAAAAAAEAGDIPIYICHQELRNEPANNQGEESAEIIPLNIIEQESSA
Sequence (O60894 27-148, chain 2 of 2): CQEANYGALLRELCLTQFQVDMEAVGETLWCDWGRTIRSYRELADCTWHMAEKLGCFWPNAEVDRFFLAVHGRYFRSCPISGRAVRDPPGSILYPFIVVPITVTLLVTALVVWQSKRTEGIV
Numbered stars: 1 amine (or outer) side, 2 acyl side, 3 side chain; on linkers, the order of the positions; unused ones are H or OH. Bridge positions count the residues as written; N and C are the ends. Square brackets hold non-standard residues; d marks the D form. Side chains are listed from the residue outwards. Ends that are not written are not given here. * marks the point of attachment. C20 diacid = O=C(O)CCCCCCCCCCCCCCCCCCC(=O)*; γGlu = O=C(O)[C@H](CCC(=O)[*:2])N[*:1]; αMeF = C[C@](N)(Cc1ccccc1)C(=O)O; NMeD = CN[C@@H](CC(=O)O)C(=O)O; αMeL = CC(C)C[C@](C)(N)C(=O)O; Orn = NCCC[C@H](N)C(=O)O; AEEA = NCCOCCOCC(=O)O; CH2 = C([*:1])[*:2]
quantity kind: hAMYIR cAMP EC50 (nM)

[γGlu]CNTATCATGKLAEFLVRSSNNFGPK([γGlu-AEEA-AEEA-C20 diacid])LPPTEVGSNTY-NH2 (bridge 2-7 via CH2) [Compound X]    0.08
KCETATCATG[Orn][αMeL]AEFLVRSSHNFGPILPPTEVGSNTY-NH2 (bridge 2-7 via CH2) [Compound VII]    0.173
[γGlu]CNTATCATGKLAEFLVRSSNNFGPK([γGlu-γGlu-AEEA-C20 diacid])LPPTEVGSNTY-NH2 (bridge 2-7 via CH2) [Compound XI]    0.038
KCETATCATG[Orn]LAE[αMeF]LVRSSN[NMeD]FGPILPPTEVGSNTY-NH2 (bridge 2-7 via CH2) [Compound V]    0.139
